The entries below are paired with their reported pEC50.
- target or test system: human MC3R (Homo sapiens, UniProt P41968)
- Sequence (P41968 whole entry): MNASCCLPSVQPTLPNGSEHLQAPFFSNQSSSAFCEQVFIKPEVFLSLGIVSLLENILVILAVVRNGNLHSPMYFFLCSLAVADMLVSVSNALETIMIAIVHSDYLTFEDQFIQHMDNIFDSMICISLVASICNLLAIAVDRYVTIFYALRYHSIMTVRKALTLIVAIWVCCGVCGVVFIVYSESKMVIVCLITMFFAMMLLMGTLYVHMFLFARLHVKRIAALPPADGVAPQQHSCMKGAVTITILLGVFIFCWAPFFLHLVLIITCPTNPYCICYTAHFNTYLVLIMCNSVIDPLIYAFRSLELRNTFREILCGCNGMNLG
- protocol description: Intracellular cAMP levels in live cells, MC3R agonist activity
- conditions used: cAMP split-luciferase reporter cell line stably expressing human MC3R; direct agonist effect, measurement window 1
Non-standard residues stand in square brackets, D forms with d. Residues, ends and D or L forms follow the SMILES beside them. Phe(4-I) = N[C@@H](Cc1ccc(I)cc1)C(=O)O; 2Nal = N[C@@H](Cc1ccc2ccccc2c1)C(=O)O; Nle = CCCC[C@H](N)C(=O)O; dAbu = CC[C@@H](N)C(=O)O
By convention, pEC50 is the negative base-10 log of a molar concentration.

Below are worked cases with known answers.
{"molecule": "CCCC[C@H](NC(C)=O)C(=O)N[C@H](C)C(=O)N[C@@H](Cc1c[nH]cn1)C(=O)N[C@@H](Cc1ccccc1)C(=O)N[C@@H](CCCNC(=N)N)C(=O)N[C@H](Cc1c[nH]c2ccccc12)C(=O)N[C@H](Cc1ccccc1)C(=O)N[C@@H](CCCNC(=N)N)C(=O)N[C@@H](Cc1ccccc1)C(=O)NCC(=O)O [CTX-1531] (Ac-[Nle][dA]HFR[dW][dF]RFG-OH)", "pEC50": 6.45}
{"molecule": "CCCC[C@H](NC(C)=O)C(=O)N[C@H](C)C(=O)N[C@@H](Cc1c[nH]cn1)C(=O)N[C@@H](Cc1ccc2ccccc2c1)C(=O)N[C@@H](CCCNC(=N)N)C(=O)N[C@H](Cc1c[nH]c2ccccc12)C(=O)N[C@@H](CC(=O)O)C(=O)N[C@@H](CCCNC(=N)N)C(=O)N[C@@H](Cc1ccccc1)C(=O)NCC(=O)O [CTX-1512] (Ac-[Nle][dA]H[2Nal]R[dW]DRFG-OH)", "pEC50": 7.88}
{"molecule": "CCCC[C@H](NC(=O)[C@@H](NC(=O)[C@@H](N)Cc1ccc(O)cc1)C(C)C)C(=O)N[C@H](Cc1ccccc1)C(=O)N[C@@H](Cc1c[nH]cn1)C(=O)N[C@@H](Cc1ccccc1)C(=O)N[C@@H](CCCNC(=N)N)C(=O)N[C@H](Cc1c[nH]c2ccccc12)C(=O)N[C@@H](CC(=O)O)C(N)=O [CTX-1132, Tyr-Val-Nle-D-Phe-His-Phe-Arg-D-Trp-Asp] (H-YV[Nle][dF]HFR[dW]D-NH2)", "pEC50": 8.41}
{"molecule": "CCCC[C@H](NC(C)=O)C(=O)N[C@H](CC)C(=O)N[C@@H](Cc1c[nH]cn1)C(=O)N[C@@H](Cc1ccccc1)C(=O)N[C@@H](CCCNC(=N)N)C(=O)N[C@H](Cc1c[nH]c2ccccc12)C(=O)N[C@@H](CC(=O)O)C(=O)N[C@@H](CCCNC(=N)N)C(=O)N[C@@H](Cc1ccccc1)C(=O)NCC(=O)O [CTX-1144] (Ac-[Nle][dAbu]HFR[dW]DRFG-OH)", "pEC50": 8.18}
{"molecule": "CCCC[C@H](NC(=O)[C@@H](NC(=O)[C@@H](N)Cc1ccc(O)cc1)C(C)C)C(=O)N[C@H](C)C(=O)N[C@@H](Cc1c[nH]cn1)C(=O)N[C@@H](Cc1ccccc1)C(=O)N[C@@H](CCCNC(=N)N)C(=O)N[C@H](Cc1c[nH]c2ccccc12)C(=O)N[C@@H](CC(=O)O)C(=O)N[C@@H](CCCNC(=N)N)C(=O)N[C@@H](Cc1ccccc1)C(N)=O [CTX-1119] (H-YV[Nle][dA]HFR[dW]DRF-NH2)", "pEC50": 8.72}

Query: pEC50; subject: CCCC[C@H](NC(C)=O)C(=O)N[C@H](C)C(=O)N[C@@H](Cc1c[nH]cn1)C(=O)N[C@@H](Cc1ccc(I)cc1)C(=O)N[C@@H](CCCNC(=N)N)C(=O)N[C@H](Cc1c[nH]c2ccccc12)C(=O)N[C@@H](CC(=O)O)C(=O)N[C@@H](CCCNC(=N)N)C(=O)N[C@@H](Cc1ccccc1)C(N)=O [CTX-1169] (Ac-[Nle][dA]H[Phe(4-I)]R[dW]DRF-NH2)
8.32

====

Each item that follows carries a reported remaining at 5 min, 1 µM.
- protocol description: in vitro
- conditions used: mouse, plasma
Non-standard residues stand in square brackets, D forms with d. Residues, ends and D or L forms follow the SMILES beside them. Nle = CCCC[C@H](N)C(=O)O; Aib = CC(C)(N)C(=O)O

{"molecule": "CCCC[C@H](NC(=O)[C@@H](NC(=O)[C@H](N)Cc1ccc(O)cc1)C(C)C)C(=O)N[C@H](C)C(=O)N[C@@H](Cc1c[nH]cn1)C(=O)N[C@@H](Cc1ccccc1)C(=O)N[C@@H](CCCNC(=N)N)C(=O)N[C@H](Cc1c[nH]c2ccccc12)C(=O)N[C@@H](CC(=O)O)C(=O)N[C@@H](CCCNC(=N)N)C(=O)N[C@@H](Cc1ccccc1)C(=O)NCC(=O)O [CTX-1125] (H-[dY]V[Nle][dA]HFR[dW]DRFG-OH)", "measured": "93.2%"}

Query molecule follows.
What value of remaining at 5 min, 1 µM has been reported for the following molecule? CCCC[C@H](NC(=O)[C@@H](NC(=O)[C@@H](N)Cc1ccc(O)cc1)C(C)C)C(=O)NC(C)(C)C(=O)N[C@@H](Cc1c[nH]cn1)C(=O)N[C@@H](Cc1ccccc1)C(=O)N[C@@H](CCCNC(=N)N)C(=O)N[C@H](Cc1c[nH]c2ccccc12)C(=O)N[C@@H](CC(=O)O)C(=O)N[C@@H](CCCNC(=N)N)C(=O)N[C@@H](Cc1ccccc1)C(=O)NCC(=O)O [CTX-1134] (H-YV[Nle][Aib]HFR[dW]DRFG-OH)
28.6%
